// provenance: patent US20240391984A1

Target: polyclonal IgG (Gammanorm, Octapharma, Sweden)
Experiment: SPR (Biacore 8K+), variant amine-coupled to CM5, Gammanorm as analyte, steady state fit
Assign labels as follows, please: 1 for Kd below 40 nM; -1 for Kd equal to or exceeding 40 nM.

Solved cases below.
pAM114 (wt B3 domain of Protein L) (protein) PKEEVTIKANLIYADGKTQTAEFKGTFEEATAEAYRYADLLAKENGKYTVDVADKGYTLNIKFAGKEKTPEE ... -1
pAM247 (Protein L C4 domain; N10H, N45H, N60Q) (designed binder) PKEEVTIKVHLIFADGKTQTAEFKGTFEEATAEAYRYADLLAKVHGEYTADLEDGGYTIQIKFAGKEQPGENPG ... 1
pAM246 (Protein L C3b domain; N10H, N45H, N60Q) (designed binder) PKEEVTIKVHLIFADGKIQTAEFKGTFEEATAKAYAYADLLAKEHGEYTADLEDGGYTIQIKFAGKETPETPEE ... -1

Now consider the entry below.
Q: Record pAM252 (Protein L B3 domain; N10H, N45H, N60Y) (designed binder) PKEEVTIKAHLIYADGKTQTAEFKGTFEEATAEAYRYADLLAKEHGKYTVDVADKGYTLYIKFAGKEKTPEE : is its Kd strictly below 40 nM?
Result: -1
